Could you please report measured inhibition for the items listed next?
Assay: inhibition of Brca1/Bard1 split-luciferase complementation, confirmation, counter-screen for Mdm2/MdmX interaction inhibitor project, luminescence, single concentration (AID 504668)
Details: Brca1/Bard1 bimolecular luciferase complementation counterscreen, at 8 µM, stronger effect = higher value
One number for each entry, in %.

Below, each entry is followed by its recorded inhibition result.
[
  {
    "COMPOUND": "CC[N+]1=C(C)C(C)(C)c2cc(C)ccc21",
    "inhibition / %": 28.2
  },
  {
    "COMPOUND": "CC1CCN(Cc2c(C(=O)N/N=C/c3ccccc3O)nnn2-c2nonc2N)CC1",
    "inhibition / %": 32.5
  },
  {
    "COMPOUND": "CCOc1cc(CNCCO)cc(Br)c1OCc1ccc(Cl)cc1Cl",
    "inhibition / %": 25.5
  },
  {
    "COMPOUND": "Cn1c(C(=O)NCc2cccs2)cc2oc3ccccc3c21",
    "inhibition / %": 27.7
  }
]

Required: inhibition, one value per compound below.
1. Clc1ccc(C2=Nn3c(nnc3-c3n[nH]c4c3CCC4)SC2)cc1Cl
2. COC(=O)[C@@H]1[C@@H](C#N)C2(c3ccccc3-c3ccccc32)N(c2ccc(Cl)cc2)N1C#N
3. Oc1ccccc1/C=N/Nc1nccnc1Cl
4. Cc1ccc(CSC(Nc2ccc(F)cc2)=C(C#N)C#N)cc1
5. CC(C)(C)c1cc(NCCCn2ccnc2)n2ncc(-c3ccc(Cl)cc3)c2n1
6. COc1cccc(Nc2nc(NCCO)c3ccccc3n2)c1
7. CCOC(=O)C(CC)(CC)C(=O)/C=C/c1cccc(Br)c1

RESULT:
[34, 32.8, 30.8, 24.3, 34.9, 27.7, 29.2]

Required: inhibition, one value per compound below.
1. O=C1c2ccccc2C(=O)c2c(Nc3ccc(CCO)cc3)ccc(O)c21
2. COc1ccc(C(=O)C/C(=C\C(=O)c2ccc(C)cc2)c2ccccc2)cc1
3. O=C(CCCN1C(=O)/C(=C\c2cccs2)SC1=S)Nc1ccc(O)cc1
4. O=C(Nc1nc(-c2ccccn2)cs1)c1cccc(S(=O)(=O)N2CCOCC2)c1

RESULT:
1: 33.2; 2: 24.3; 3: 31.8; 4: 33.4

Required: inhibition, one value per compound below.
1. Cc1cc(SC#N)cc(C)c1NC(=O)CCl
2. COc1cc(C(=O)N/N=C(\Cc2ncc[nH]2)c2ccccc2)cc(OC)c1OC
3. O=C(c1ccco1)N1CCN(C(=O)C2CCCc3c2[nH]c2ccc(Cl)cc32)CC1 (configuration not stated)
4. O=C(/C=C/c1ccc2ccccc2n1)N1CCN(S(=O)(=O)c2ccccc2F)CC1
5. CCN1/C(=C/C=C/c2oc3ccc4ccccc4c3[n+]2CC)Oc2ccc3ccccc3c21

RESULT:
1. 33.8
2. 23.7
3. 28.5
4. 25.5
5. 28.6

Required: inhibition, one value per compound below.
1. O=C(N/N=C\c1c(O)ccc2ccccc12)c1ccc(Cn2cccn2)o1
2. Oc1ccc(N=Nc2ccc3c(c2)OCCO3)c2ncccc12

RESULT:
1: 24.8; 2: 26.2

* * *

Target: Carboxy-terminal domain RNA polymerase II polypeptide A small phosphatase 1 (Homo sapiens) (UniProt Q9GZU7)
Test: Scp-1 binding by thermal shift, confirmation, orthogonal assay for Scp-1 inhibitor project, biophysical, differential scanning fluorimetry (AID 540329);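 note: 0% = Tm of DMSO wells and 100% = Tm with sodium orthovanadate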
Settings: Recombinant SCP1, Sypro Orange thermal shift Tm; at 40 µM; stronger effect = higher value
Some of the results follow.
Could you please report measured thermal shift relative to vanadate control for the items listed next?
Answers are plain numbers, in %.

Below, each entry is followed by its recorded thermal shift relative to vanadate control result.
[
  {
    "MOLECULE": "CCOC(=O)C1=C(C)c2ccccc2OC1(C)C(=O)OCC (stereo unspecified)",
    "UNITS": "%",
    "ASSAY VALUE": -2.89
  },
  {
    "MOLECULE": "Cc1ccc(NC(=O)c2cc(-c3ccc(C)o3)nc3ccccc23)nc1",
    "UNITS": "%",
    "ASSAY VALUE": 5.81
  },
  {
    "MOLECULE": "O=C(NNC(=O)c1ccc2ccccc2c1)c1ccc(Cl)cc1",
    "UNITS": "%",
    "ASSAY VALUE": -19.4
  }
]

Required: thermal shift relative to vanadate control, one value per molecule below.
1. Cc1nn(-c2cc(Cl)ccc2N)c(=O)c2ccccc12
2. O=C(O)c1ccc(N/N=C/c2ccc3ncccc3c2)cc1

RESULT:
-6.02
4.85

Required: thermal shift relative to vanadate control, one value per molecule below.
1. Cc1ccc(Cc2nnc(SCC(=O)Nc3ccc(C)cc3C)[nH]c2=O)cc1
2. CC1CCN(c2ccc(S(=O)(=O)Nc3cc(C(=O)O)cc(C(=O)O)c3)cc2[N+](=O)[O-])CC1
3. COc1cccc2cc(-c3cc(=O)oc4cc(C)c(O)cc34)oc12
4. Cc1c(CCC(=O)O)c(=O)oc2cc(OCc3ccc(Br)cc3)ccc12
5. N#Cc1ccccc1CN1C(=O)S/C(=C/c2cccn2-c2cccc(C(=O)O)c2)C1=O
6. Cc1ccc(C(=O)NNC(=O)c2cc3cc4ccccc4nc3s2)cc1
7. C[C@H](CO)N1C[C@H](C)[C@H](CN(C)C(=O)Nc2ccc(C(F)(F)F)cc2)Oc2c(NC(=O)c3ccncc3)cccc2C1=O
8. O=c1[nH]n(-c2ccc([N+](=O)[O-])cc2)c(=O)c2ccccc12

RESULT:
1: 4.55; 2: 15; 3: -12.5; 4: -18.2; 5: 1.96; 6: -10.9; 7: 1.36; 8: 2.78

* * *

Test: caspase-8 TRAIL sensitization, hit retest, confirmation, cell-based, NB7+caspase-8, with/without TRAIL, luminescence panel (AID 651596)
Details: NB7 neuroblastoma + caspase-8, without TRAIL, luminescence viability, without TRAIL, mean of runs, at 10 µM
// boundary case: activity equal to 60% maps to not satisfied; strictly smaller maps to satisfied

[
  {
    "COMPOUND": "Cn1c(=N)n(CC(=O)c2ccccc2)c2ccccc21",
    "CATEGORY LABEL": "not satisfied"
  },
  {
    "COMPOUND": "CC(C)(C)c1ccc(/C=N/NC(=O)c2ccccn2)cc1",
    "CATEGORY LABEL": "not satisfied"
  },
  {
    "COMPOUND": "CCc1ccc(-c2cc(C(=O)N/N=C/c3c[nH]c4ccccc34)[nH]n2)cc1",
    "CATEGORY LABEL": "satisfied"
  },
  {
    "COMPOUND": "COC(=O)c1sc(NC(=S)NC(=O)c2cccc(C)c2)nc1C",
    "CATEGORY LABEL": "satisfied"
  },
  {
    "COMPOUND": "CCC(=O)N1CCCc2cc(S(=O)(=O)N3CCN(c4ccccc4F)CC3)ccc21",
    "CATEGORY LABEL": "satisfied"
  },
  {
    "COMPOUND": "Cc1ccc(NC(=O)c2ccccc2)s1",
    "CATEGORY LABEL": "satisfied"
  },
  {
    "COMPOUND": "CCOc1ccc2nc(-c3ccccc3)[nH]c2c1",
    "CATEGORY LABEL": "not satisfied"
  },
  {
    "COMPOUND": "Cc1ccc(C(=O)Nc2cccc(C(F)(F)F)c2)cc1NC(=O)c1nccnc1N",
    "CATEGORY LABEL": "satisfied"
  },
  {
    "COMPOUND": "Cc1ccc2oc(-c3ccccc3)c(C(=O)O)c(=O)c2c1",
    "CATEGORY LABEL": "satisfied"
  },
  {
    "COMPOUND": "COC(=O)C1=C(C)N(Cc2ccccc2)C(=NCC(C)C)N[C@H]1c1cccc(C(F)(F)F)c1",
    "CATEGORY LABEL": "satisfied"
  }
]

QUERY: For this compound, is activity lower than 60%? `Cc1ccc(NC(=O)CSc2nc3ccc(Nc4nc(N5CCOCC5)nc(N5CCOCC5)n4)cc3s2)cc1`
RESULT: satisfied

QUERY: Moving on to the next compound: CCCCC1CCC(C(=O)N(CCC(C)C)c2c(N)n(CCCC)c(=O)[nH]c2=O)CC1 (centres undefined)
RESULT: satisfied

* * *

Assay: caspase-8 TRAIL sensitization, hit retest, confirmation, cell-based, NB7+caspase-8, with/without TRAIL, luminescence panel (AID 651596)
Details: NB7 neuroblastoma + caspase-8, without TRAIL, luminescence viability, without TRAIL, mean of runs, at 10 µM
Could you please report measured activity for the items listed next?
Give bare numbers, in %.

[
  {
    "COMPOUND": "Cc1ccsc1C(=O)Nc1nc2ccccc2[nH]1",
    "activity (%)": 85.7
  }
]

Required: activity, one value per compound below.
1. Cc1cccc(NC(=S)NC(=O)c2oc3ccccc3c2C)n1
2. Cc1ccc(/C=N/NC(=O)c2cc(C)oc2C)cc1
3. COc1cccc(N/C=C/C(=O)c2ccc(Cl)cc2)c1
4. COCCOCCn1c(/C=C/c2ccccc2)nc2ccccc21
5. C/C(Cn1nnc([N+](=O)[O-])n1)=N\NC(=O)c1ccccc1O
6. COCCNc1c(-c2cc3ccc(C)c(C)c3[nH]c2=O)nc2ccccn12

RESULT:
[60.1, 55, 50, 77.1, 51, 47.6]
